PROCEDURE DETAILS: isobaric coefficient of expansion
MEASUREMENT PARAMETERS: 308.15 K; 10000 kPa; Liquid; Micro DSCII
Attribute: isobaric coefficient of expansion

Solved cases below.
[[record]]
molecule = "CCCC[n+]1ccn(C)c1.O=S(=O)([N-]S(=O)(=O)C(F)(F)F)C(F)(F)F"
endpoint = "isobaric coefficient of expansion"
result = "0.000647 1/K"

[[record]]
molecule = "CCCCn1cc[n+](C)c1.[F][Sb-]([F])([F])([F])([F])[F] [1-butyl-3-methylimidazolium hexafluoroantimonate]"
endpoint = "isobaric coefficient of expansion"
result = "0.00061 1/K"

[[record]]
molecule = "CCCCn1cc[n+](C)c1.O=S(=O)([O-])C(F)(F)F [1-butyl-3-methylimidazolium trifluoromethanesulfonate]"
endpoint = "isobaric coefficient of expansion"
result = "0.000597 1/K"

[[record]]
molecule = "CCCCn1cc[n+](C)c1.COS(=O)(=O)[O-] [1-butyl-3-methylimidazolium methyl sulfate]"
endpoint = "isobaric coefficient of expansion"
result = "0.000538 1/K"


Record CCCCn1cc[n+](C)c1.F[B-](F)(F)F [1-butyl-3-methylimidazolium tetrafluoroborate] , field isobaric coefficient of expansion: 0.00058 1/K
